biological target: Neurogenic locus notch homolog protein 3 (Homo sapiens) (UniProt Q9UM47); experiment: NOTCH3 binders on small-molecule microarray, primary screen, biochemical, 635/667 nm fluorescence (AID 1096); settings: NOTCH3 binding, 635 nm fluorescence, higher = more signal
Sequence (Q9UM47 whole entry, looked up): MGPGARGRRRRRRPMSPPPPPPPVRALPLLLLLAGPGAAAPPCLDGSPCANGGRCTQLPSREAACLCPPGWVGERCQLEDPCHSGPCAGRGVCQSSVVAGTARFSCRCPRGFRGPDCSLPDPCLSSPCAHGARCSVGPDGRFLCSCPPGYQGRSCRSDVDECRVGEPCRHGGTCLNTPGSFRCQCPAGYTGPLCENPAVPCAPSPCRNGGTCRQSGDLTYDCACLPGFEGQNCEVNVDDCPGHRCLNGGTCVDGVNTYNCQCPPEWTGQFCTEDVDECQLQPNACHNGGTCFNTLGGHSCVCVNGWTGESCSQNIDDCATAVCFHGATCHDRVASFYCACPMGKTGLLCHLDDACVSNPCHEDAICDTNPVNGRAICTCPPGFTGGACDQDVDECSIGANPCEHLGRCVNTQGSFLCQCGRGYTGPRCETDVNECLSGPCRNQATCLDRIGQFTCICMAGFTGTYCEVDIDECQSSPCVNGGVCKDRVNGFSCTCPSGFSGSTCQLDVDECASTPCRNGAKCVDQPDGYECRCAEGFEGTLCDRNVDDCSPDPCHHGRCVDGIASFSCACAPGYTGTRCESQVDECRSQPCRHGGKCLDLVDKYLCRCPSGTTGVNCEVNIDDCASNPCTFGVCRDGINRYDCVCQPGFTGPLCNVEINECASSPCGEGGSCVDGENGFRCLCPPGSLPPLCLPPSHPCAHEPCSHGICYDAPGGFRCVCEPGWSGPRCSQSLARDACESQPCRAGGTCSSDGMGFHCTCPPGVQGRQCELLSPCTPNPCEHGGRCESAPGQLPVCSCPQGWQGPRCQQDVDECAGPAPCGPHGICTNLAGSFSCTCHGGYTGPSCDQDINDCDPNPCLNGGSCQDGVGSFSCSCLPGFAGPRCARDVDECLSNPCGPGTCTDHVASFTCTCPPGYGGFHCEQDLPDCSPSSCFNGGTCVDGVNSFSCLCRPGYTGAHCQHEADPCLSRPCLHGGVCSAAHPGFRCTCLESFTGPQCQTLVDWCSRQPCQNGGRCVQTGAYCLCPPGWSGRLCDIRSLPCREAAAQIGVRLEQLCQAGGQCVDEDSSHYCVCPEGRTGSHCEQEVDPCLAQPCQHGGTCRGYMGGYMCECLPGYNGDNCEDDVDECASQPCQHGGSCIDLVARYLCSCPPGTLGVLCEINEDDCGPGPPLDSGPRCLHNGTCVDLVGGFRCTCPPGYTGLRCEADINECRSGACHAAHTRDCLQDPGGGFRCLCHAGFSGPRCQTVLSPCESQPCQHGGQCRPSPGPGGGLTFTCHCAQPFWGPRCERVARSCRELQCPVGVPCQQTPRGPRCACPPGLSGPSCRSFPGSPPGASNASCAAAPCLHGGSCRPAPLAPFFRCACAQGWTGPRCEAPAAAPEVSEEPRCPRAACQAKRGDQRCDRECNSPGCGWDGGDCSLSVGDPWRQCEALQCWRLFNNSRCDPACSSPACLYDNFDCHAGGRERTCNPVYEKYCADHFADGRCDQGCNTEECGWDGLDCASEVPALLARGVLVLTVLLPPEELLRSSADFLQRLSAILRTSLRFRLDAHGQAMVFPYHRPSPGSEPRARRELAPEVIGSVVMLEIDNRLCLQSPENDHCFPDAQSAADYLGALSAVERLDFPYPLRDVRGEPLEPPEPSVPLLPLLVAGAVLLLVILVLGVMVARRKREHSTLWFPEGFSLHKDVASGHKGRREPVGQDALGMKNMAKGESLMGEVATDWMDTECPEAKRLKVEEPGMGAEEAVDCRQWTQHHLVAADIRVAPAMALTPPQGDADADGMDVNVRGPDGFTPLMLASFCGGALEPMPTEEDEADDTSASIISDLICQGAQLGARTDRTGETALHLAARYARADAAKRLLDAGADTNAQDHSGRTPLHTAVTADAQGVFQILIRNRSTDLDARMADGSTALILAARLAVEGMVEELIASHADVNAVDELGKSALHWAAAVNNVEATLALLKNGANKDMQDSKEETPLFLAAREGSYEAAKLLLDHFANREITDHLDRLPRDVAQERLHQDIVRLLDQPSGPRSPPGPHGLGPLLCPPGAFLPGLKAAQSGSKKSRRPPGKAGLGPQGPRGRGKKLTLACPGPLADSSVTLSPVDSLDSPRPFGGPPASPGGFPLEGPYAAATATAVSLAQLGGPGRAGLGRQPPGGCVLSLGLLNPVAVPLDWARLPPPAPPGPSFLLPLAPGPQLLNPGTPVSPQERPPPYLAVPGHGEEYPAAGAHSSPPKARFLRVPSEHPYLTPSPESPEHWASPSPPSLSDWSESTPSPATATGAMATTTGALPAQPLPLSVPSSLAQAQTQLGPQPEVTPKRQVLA
composite z-score listing for selected molecules.

>  <molecule>
O=C(NCc1ccccc1)[C@@]1(Cc2ccccc2)COC(c2ccc(OCCCO)cc2)=N1

>  <composite z-score>
-0.0046

$$$$
>  <molecule>
Cc1ccc(S[C@]2(C(=O)O)CC(=O)N(Cc3ccccc3)[C@@H]2c2ccc(CO)cc2)cc1

>  <composite z-score>
-0.0738

$$$$
>  <molecule>
CCN1C(C)=C(C(=O)OC)[C@@H](c2ccccc2)N2C(=O)[C@@]3(C(=O)OC)O[C@@]12[C@@H]1C(=O)N(c2ccccc2)C(=O)[C@@H]13

>  <composite z-score>
0.983

$$$$
>  <molecule>
COCCOC(=O)N1C(=O)[C@@]2(c3ccccc31)[C@H](C(=O)N1CCc3cc(OC)c(OC)cc3C1)[C@H]1C(=O)O[C@H](c3ccccc3)[C@H](c3ccccc3)N1[C@@H]2c1ccccc1OCCO

>  <composite z-score>
1.07

$$$$
>  <molecule>
CCC#CCN(Cc1ccccc1Br)[C@H](/C=C/c1ccccc1)[C@@H](O)Cc1ccccc1

>  <composite z-score>
-1.11

$$$$
>  <molecule>
CCCC=C(CCC)[C@@H](NS(=O)(=O)c1cccc(C(F)(F)F)c1)c1ccc(C(=O)OC)cc1

>  <composite z-score>
0.0083

$$$$
>  <molecule>
CC(C)N1CC=CC23O[C@@H]4/C=C\CCCOC(=O)C4[C@H]2C(=O)N(CCCCCO)[C@@H]3C1=O (some centres undefined)

>  <composite z-score>
-1.89

$$$$
>  <molecule>
C=CCOC(=O)[C@@H]1[C@H]2C(=O)O[C@H](c3ccccc3)[C@H](c3ccccc3)N2[C@H](c2ccc(OCCOC(=O)[C@H]3C[C@H]4C(=O)N5CCC[C@H]5C(=O)N4[C@H]3c3ccc(O)cc3)cc2)[C@@]12C(=O)Nc1ccccc12

>  <composite z-score>
0.695

$$$$
>  <molecule>
COC(=O)[C@@]1(Cc2ccccc2CN=[N+]=[N-])N=C(c2ccc(OCCCO)cc2)O[C@H]1c1ccccc1N=[N+]=[N-]

>  <composite z-score>
0.698

$$$$
>  <molecule>
COCCOC(=O)N1C(=O)[C@@]2(c3cc(C#CC4(O)CCCCCC4)ccc31)[C@H](C(=O)N1CCCCCCC1)[C@H]1C(=O)O[C@H](c3ccccc3)[C@H](c3ccccc3)N1[C@@H]2c1ccc(O)cc1

>  <composite z-score>
0.995

$$$$
>  <molecule>
C=CC[C@]1(C(=O)O)N=C(c2ccc(OCCCO)cc2)O[C@H]1c1ccccc1N=[N+]=[N-]

>  <composite z-score>
-0.33

$$$$
>  <molecule>
CO[C@]12C=C(Br)[C@@H](C[C@@H]1c1ccccc1)[C@@]1(CO1)C2=O

>  <composite z-score>
0.243

$$$$
>  <molecule>
COc1cc(CO)cc(I)c1O[C@H]1C=C(C(=O)NCCO)C[C@@H](NCCc2c[nH]c3ccccc23)[C@@H]1O

>  <composite z-score>
0.705

$$$$
>  <molecule>
CC(C)C[C@@H]1NC(=O)[C@H](CC(C)C)NC(=O)[C@@]23C(=O)N[C@@H](Cc4ccccc4)C2[C@H](C)[C@@]2(C)O[C@H]2C3/C=C/CC/C=C/CNC1=O (some centres undefined)

>  <composite z-score>
1.08

$$$$

src = PubChem BioAssay
